- system: human recombinant Monoacylglycerol Lipase (Homo sapiens)
- Sequence (Q99685 whole entry): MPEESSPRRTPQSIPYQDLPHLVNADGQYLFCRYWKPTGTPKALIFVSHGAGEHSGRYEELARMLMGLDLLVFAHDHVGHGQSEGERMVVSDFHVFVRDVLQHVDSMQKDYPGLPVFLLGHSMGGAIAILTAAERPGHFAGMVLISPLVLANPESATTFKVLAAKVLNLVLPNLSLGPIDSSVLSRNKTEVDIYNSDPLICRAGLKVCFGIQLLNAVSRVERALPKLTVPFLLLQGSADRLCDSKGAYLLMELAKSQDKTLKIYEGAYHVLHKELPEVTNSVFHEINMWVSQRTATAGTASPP
- assay: MAGL inhibition enzymatic assay, fluorogenic substrate 7-HCA, IC50 at T=0 min or after 30 minute incubation (T=30 min)
- Assay type: biochemical
- conditionInfo: T = 30 min (30 minute incubation); geometric mean of 2-4 determinations unless otherwise indicated; read-out: MAGL (T = 30 min) IC50
Provide the recorded pIC50 for the entries that follow.
Remember the convention: pIC50 equals -log10 of concentration in molar.

Entry under review: COP(=O)(OC)OC[C@@H](OC(=O)N1CCC2(CC1)CN(S(=O)(=O)c1ccc(F)cc1)CCO2)C(F)(F)F [Example 86] . Reported pIC50? 8.10

Entry under review: O=C(O[C@H](CO)C(F)(F)F)N1CCC2(CC1)CC(c1ccccc1)CO2 (single isomer, unassigned) [Example 96] . Reported pIC50? 8.30

Entry under review: N#Cc1cccc(C2COC3(CCN(C(=O)O[C@H](CO)C(F)(F)F)CC3)C2)c1 (mixture of isomers) [Example 147] . Reported pIC50? 8.22

Entry under review: Cc1ccc(C2COC3(CCN(C(=O)O[C@H](CO)C(F)(F)F)CC3)C2)cn1 (mixture of isomers) [Example 123] . Reported pIC50? 7.52
